Molecular target: Adenosine receptor A1 (Homo sapiens) (UniProt P30542)
Sequence (P30542 whole entry): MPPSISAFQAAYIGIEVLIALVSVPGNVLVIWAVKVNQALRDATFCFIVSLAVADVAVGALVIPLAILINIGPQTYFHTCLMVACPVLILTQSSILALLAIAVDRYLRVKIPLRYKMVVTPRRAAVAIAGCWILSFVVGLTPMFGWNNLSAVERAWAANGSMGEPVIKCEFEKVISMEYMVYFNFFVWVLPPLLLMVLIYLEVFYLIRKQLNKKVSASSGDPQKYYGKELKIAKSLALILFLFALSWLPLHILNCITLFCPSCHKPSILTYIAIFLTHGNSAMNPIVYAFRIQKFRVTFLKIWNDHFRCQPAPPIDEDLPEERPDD
Assay: Displacement of [3H]DPCPX from human adenosine A1 receptor expressed in CHO cells at 10 uM
Type: cell-based
measurement label: Activity (%)

Take a look at these entries with their results.
[
  {
    "line notation": "CCCCCSc1nc(N)cc(OS(=O)(=O)c2ccccc2Cl)n1",
    "Activity, %": 4
  },
  {
    "line notation": "Cc1ccc(S(=O)(=O)NCCSc2nc(N)cc(=O)[nH]2)cc1",
    "Activity, %": 6
  }
]

(P) CC(C)(C)OC(=O)NCCSc1nc(N)cc(=O)[nH]1
(Q) Cc1ccc(S(=O)(=O)Oc2cc(N)nc(SCCO)n2)cc1
(R) CN(C)c1cccc2c(S(=O)(=O)Oc3cc(N)nc(SCCO)n3)cccc12
(S) Cc1ccc(S(=O)(=O)Oc2cc(N)nc(SCCN)n2)cc1
## Input With regard to Activity, arrange the entries in ascending order, please. Sort and list the labels as requested.
## Output Q, S, P, R
(Q: 2%, S: 3%, P: 7%, R: 48%)

* * *

Target: Adenosine receptor A2a (Homo sapiens)
Experiment: Displacement of [3H]ZM241385 from human adenosine A2A receptor expressed in CHO cells at 10 uM
Format: cell-based
measurement label: Activity (%)

Take a look at these entries with their results.
[
  {
    "line notation": "CN(C)c1cccc2c(S(=O)(=O)Oc3cc(N)nc(SCCO)n3)cccc12",
    "unit symbol": "%",
    "Activity": 1
  },
  {
    "line notation": "Cc1ccc(S(=O)(=O)Oc2cc(N)nc(SCCO)n2)cc1",
    "unit symbol": "%",
    "Activity": 1
  },
  {
    "line notation": "Cc1ccc(S(=O)(=O)NCCSc2nc(N)cc(=O)[nH]2)cc1",
    "unit symbol": "%",
    "Activity": 1
  }
]

(A) CCCCCSc1nc(N)cc(OS(=O)(=O)c2ccccc2Cl)n1
(B) CC(C)(C)OC(=O)NCCSc1nc(N)cc(=O)[nH]1
(C) Cc1ccc(S(=O)(=O)Oc2cc(N)nc(SCCN)n2)cc1
## Input With regard to Activity, arrange the entries in ascending order, please. Sort and list the labels as requested.
## Output A, B, C

* * *

Target: Adenosine receptor A3 (Homo sapiens)
Experiment: Displacement of [3H]ABMECA from human adenosine A3 receptor expressed in CHO cells at 10 uM
Format: cell-based
Conditions: in the assay text read “[125I]ABMECA” for “[3H]ABMECA”
measurement label: Activity (%)

Take a look at these entries with their results.
[
  {
    "line notation": "Cc1ccc(S(=O)(=O)NCCSc2nc(N)cc(=O)[nH]2)cc1",
    "Activity, %": 44
  },
  {
    "line notation": "Cc1ccc(S(=O)(=O)Oc2cc(N)nc(SCCO)n2)cc1",
    "Activity, %": 46
  }
]

(A) CN(C)c1cccc2c(S(=O)(=O)Oc3cc(N)nc(SCCO)n3)cccc12
(B) CC(C)(C)OC(=O)NCCSc1nc(N)cc(=O)[nH]1
## Input Smaller Activity value, A vs B ? Write down the label of the entry you select.
## Output B

* * *

Assay: Antiplatelet activity against 10^-5 M ADP-induced human platelet aggregation at 100 uM by light transmission aggregometry
Format: functional
Readings of Activity for the listed compounds
Respond with the bare value in %.

Take a look at these entries with their results.
[
  {
    "line notation": "Cc1ccc(S(=O)(=O)Oc2cc(N)nc(SCC(F)(F)F)n2)cc1",
    "Activity [%]": 101
  },
  {
    "line notation": "Nc1cc(=O)[nH]c(SCc2ccccc2Cl)n1",
    "Activity [%]": 101
  },
  {
    "line notation": "Nc1cc(=O)[nH]c(SC(c2ccccc2)(c2ccccc2)c2ccccc2)n1",
    "Activity [%]": 100
  }
]

Continue with the next compound.
Lookup result for CCCCCSc1nc(N)cc(OS(=O)(=O)c2ccc(C)cc2)n1 ; measured Activity: 88
